# testedSystem: Albumin (Bos taurus) (UniProt P02769)
# Sequence (P02769 whole entry, looked up): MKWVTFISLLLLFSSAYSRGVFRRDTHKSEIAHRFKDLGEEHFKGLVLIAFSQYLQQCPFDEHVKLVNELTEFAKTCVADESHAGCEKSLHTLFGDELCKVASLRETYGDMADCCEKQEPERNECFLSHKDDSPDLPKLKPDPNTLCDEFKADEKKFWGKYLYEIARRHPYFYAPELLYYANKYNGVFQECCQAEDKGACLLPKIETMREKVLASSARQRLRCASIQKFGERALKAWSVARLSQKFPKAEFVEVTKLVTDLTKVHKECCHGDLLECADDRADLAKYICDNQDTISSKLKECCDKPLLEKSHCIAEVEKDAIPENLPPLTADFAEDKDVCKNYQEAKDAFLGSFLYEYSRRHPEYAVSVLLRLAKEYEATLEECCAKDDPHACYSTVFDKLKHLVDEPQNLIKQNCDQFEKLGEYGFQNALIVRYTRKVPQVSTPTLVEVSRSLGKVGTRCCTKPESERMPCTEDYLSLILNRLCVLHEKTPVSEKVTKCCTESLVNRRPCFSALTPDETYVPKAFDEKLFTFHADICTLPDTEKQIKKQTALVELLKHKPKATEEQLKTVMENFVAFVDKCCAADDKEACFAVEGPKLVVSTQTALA
# experimentSummary: bovine serum albumin binders on microarray, profiling panel, artefact control for SMM control protein annotation, biochemical, small-molecule microarray, Alexa647 label, 635/667 nm fluorescence (AID 1118);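 further: score merges 667 nm emission intensity and signal-to-noise per printed compound spot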
# assayContext: BSA-A647 binding, fluorescence 635 nm, higher = more signal
# Lookup of reported composite z-score keyed by entry

A selection of reference data follows.
compound="CC(C)=NOC(C)CN1CCCc2nc(C)c(C)cc21 (configuration not stated)" testedsystem="Albumin (Bos taurus) (UniProt P02769)" experimentalvalue=0.297
compound="CCOC(=O)[C@H](CC(C)C)NC(=O)CCC1CC(OC(=O)NCc2ccc3c(c2)OCO3)CC2(CCCC(COC(=O)NCCC(C)C)O2)O1 (some centres not stated)" testedsystem="Albumin (Bos taurus) (UniProt P02769)" experimentalvalue=0.42
compound=CCCNC(=O)OC[C@H]1O[C@H](CCON=C2c3cc(OC)ccc3O[C@H](c3cccc(OC)c3)[C@H]2O)C=C[C@@H]1Oc1ccc(OC)cc1 testedsystem="Albumin (Bos taurus) (UniProt P02769)" experimentalvalue=0.491

get_value(item= "C=CC[C@@H]1C=C[C@H](ON=C(C)CCN2CCCCc3nc(C)c(C)cc32)[C@@H](CO)O1" , readout=composite z-score) returns 0.0868

get_value(item= "O=C1C2=CC[C@H]3C(=O)N(C[C@@H]4CCCO4)C(=O)[C@H]3[C@H]2[C@H](O)[C@@H]2O[C@H]12" , readout=composite z-score) returns 0.335

get_value(item= "CO[C@@H]1[C@H](O)CO[C@H]1C=Cc1ccccc1" , readout=composite z-score) returns 0.24

Just for reference, PubChem BioAssay is where these values come from.
